assay: in vitro; conditions: human, Caco-2
observable: Papp

Given Oc1cc(O)c2c(c1)O[C@H](c1ccc(O)c(O)c1)[C@H](O)C2 [epicatechin] , state its recorded Papp.
32.8 to 305 nm/s
